target: hA2a (Homo sapiens (Human), UniProt P29274); experiment: cAMP inhibition assay in hA2a/CHO cells; format: cell-based; details: adenosine stimulation, read-out: cAMP & FLIPR IC50 (nM) hA2a
Sequence (P29274 whole entry): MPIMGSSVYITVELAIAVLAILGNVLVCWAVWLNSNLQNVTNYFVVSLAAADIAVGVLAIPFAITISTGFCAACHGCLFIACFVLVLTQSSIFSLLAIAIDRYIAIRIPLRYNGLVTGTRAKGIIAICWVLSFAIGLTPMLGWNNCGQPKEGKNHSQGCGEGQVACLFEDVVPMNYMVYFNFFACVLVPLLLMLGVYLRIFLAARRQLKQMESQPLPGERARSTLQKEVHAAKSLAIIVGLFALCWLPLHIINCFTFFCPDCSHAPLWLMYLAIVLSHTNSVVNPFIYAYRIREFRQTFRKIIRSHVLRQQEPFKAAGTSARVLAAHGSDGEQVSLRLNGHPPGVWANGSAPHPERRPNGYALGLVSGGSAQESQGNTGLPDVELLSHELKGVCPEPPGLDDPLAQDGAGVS
MEASURED PARAMETER: IC50 (nM)
Could you give me the number in nM? Just the number is fine.

Here is how some compounds turned out for IC50.
STRUCTURE SMILES | IC50 [nM]
Cn1cc(-c2c(-c3ncco3)nc(N)n3nc(Cc4c(F)cccc4F)nc23)ccc1=O | 8.2
Cc1cnc(-c2nc(N)n3nc(Cc4c(F)cccc4F)nc3c2-c2ccc(=O)n(C)c2)o1 | 15
COc1ccc(-c2nc(N)n3nc(Cc4ncccc4F)nc3c2-c2ccc(=O)n(C)c2)cc1 | 28

We now examine a further compound.
Prompt line: Could you share which IC50 value was measured for CC(C)n1cc(-c2c(-c3ncco3)nc(N)n3nc(Cc4c(F)cccc4F)nc23)ccc1=O ?
Response line: 0.7

* * *

Catalogue of IC50 values
target: hA2a (Homo sapiens (Human), UniProt P29274); experiment: Radioligand binding to hA2a membrane ([3H]-CGS21680); conditions: [3H]-CGS21680, 90 min at 25° C., read-out: Binding Affinity (IC50 nM) hA2a
Could you give me the number in nM? Just the number is fine.

MOLECULE | IC50, nM
Cn1cc(-c2c(-c3ncco3)nc(N)n3nc(Cc4c(F)cccc4F)nc23)ccc1=O [Example 22] | 12

Prompt line: Could you share which IC50 value was measured for Nc1nc(-n2nccn2)c(-c2ccc3nccn3c2)c2nc(Cc3ncccc3F)nn12 [Example 94] ?
Response line: 3.5

Prompt line: Similarly, Cn1cc(-c2c(-c3ccc(C(F)(F)F)cc3)nc(N)n3nc(Cc4ncccc4F)nc23)ccc1=O [Example 62] ?
Response line: 5.2

Prompt line: Similarly, Nc1nc(-c2ncco2)c(-c2ccc3nccn3c2)c2nc(Cc3ncccc3F)nn12 [Example 31] ?
Response line: 3

Prompt line: Similarly, Cn1cc(-c2c(-c3ccc(C(F)F)cc3)nc(N)n3nc(Cc4ncccc4F)nc23)ccc1=O [Example 41] ?
Response line: 3.4

Prompt line: Similarly, CN(C)c1cc(-c2c(-c3ccc(F)cc3)nc(N)n3nc(Cc4c(F)cccc4F)nc23)ccn1 [Example 10] ?
Response line: 0.9

Prompt line: Similarly, Cn1cc(-c2c(-c3cccc(Cl)c3)nc(N)n3nc(Cc4ncccc4F)nc23)ccc1=O [Example 70] ?
Response line: 4.1

Prompt line: Similarly, CC(C)n1cc(-c2c(-c3ccc(F)cc3)nc(N)n3nc(Cc4ncccc4F)nc23)ccc1=O [Example 55] ?
Response line: 4

Prompt line: Similarly, Nc1nc(-c2ncco2)c(-c2ccnc(OC(F)F)c2)c2nc(Cc3c(F)cccc3F)nn12 [Example 85] ?
Response line: 5.5

* * *

target: hA2a (Homo sapiens (Human), UniProt P29274); test: cAMP inhibition assay in hA2a/CHO cells; format: cell-based; conditions: adenosine stimulation, read-out: cAMP & FLIPR IC50 (nM) hA2a
MEASURED PARAMETER: IC50 (nM)
Could you give me the number in nM? Just the number is fine.

COMPOUND | UNIT LABEL | IC50
Cn1cc(-c2c(-c3cc(F)cc(F)c3)nc(N)n3nc(Cc4ncccc4F)nc23)ccc1=O | nM | 7.9
Cc1cnc2ccc(-c3c(N4CCOCC4)nc(N)n4nc(Cc5ncccc5F)nc34)cn12 | nM | 2.6
Nc1cccc(Cc2nc3c(-c4ccc5nccn5c4)c(-c4ccc(F)cc4)nc(N)n3n2)n1 | nM | 1.8
Cn1nc(-c2c(-c3ccc(F)cc3)nc(N)n3nc(Cc4ncccc4F)nc23)ccc1=O | nM | 5.9
Cc1cc(-c2c(-c3ncco3)nc(N)n3nc(Cc4c(F)cccc4F)nc23)cc(C#N)n1 | nM | 18
Cc1cnc2ccc(-c3c(-c4ncco4)nc(N)n4nc(CC5CCOC5)nc34)cn12 (single isomer, unassigned) [Example 107-2] | nM | 0.5
Nc1nc(-c2ccc(F)cc2)c(-c2ccc(=O)n(C3CC3)c2)c2nc(Cc3ncccc3F)nn12 | nM | 20
Cn1cc(-c2c(-c3ccc(C(F)F)cc3)nc(N)n3nc(Cc4ncccc4F)nc23)ccc1=O | nM | 70
Cn1cc(-c2c(-n3nccn3)nc(N)n3nc(Cc4c(F)cccc4F)nc23)ccc1=O | nM | 20
Cc1cc(-c2c(-c3ncco3)nc(N)n3nc(Cc4c(F)cccc4F)nc23)cc(C2CC2)n1 | nM | 60

Prompt line: Fill in the recorded IC50 for this compound, with hA2a (Homo sapiens (Human), UniProt P29274) as test system: Nc1nc(-c2ccc(F)cc2)c(-c2ccc(=O)n(C3CS(=O)(=O)C3)c2)c2nc(Cc3c(F)cccc3F)nn12
Response line: 56

Prompt line: Similarly, Nc1nc(-c2ncco2)c(-c2ccc3nccn3c2)c2nc(Cc3ncccc3F)nn12 ?
Response line: 14

Prompt line: Similarly, Cn1cc(-c2c(-c3ccc4c(ccn4C)c3)nc(N)n3nc(Cc4ncccc4F)nc23)ccc1=O ?
Response line: 47
